Study Target: Glutamate receptor ionotropic, kainate 1 (Rattus norvegicus)
Sequence (P22756 whole entry, the tested form may be a part): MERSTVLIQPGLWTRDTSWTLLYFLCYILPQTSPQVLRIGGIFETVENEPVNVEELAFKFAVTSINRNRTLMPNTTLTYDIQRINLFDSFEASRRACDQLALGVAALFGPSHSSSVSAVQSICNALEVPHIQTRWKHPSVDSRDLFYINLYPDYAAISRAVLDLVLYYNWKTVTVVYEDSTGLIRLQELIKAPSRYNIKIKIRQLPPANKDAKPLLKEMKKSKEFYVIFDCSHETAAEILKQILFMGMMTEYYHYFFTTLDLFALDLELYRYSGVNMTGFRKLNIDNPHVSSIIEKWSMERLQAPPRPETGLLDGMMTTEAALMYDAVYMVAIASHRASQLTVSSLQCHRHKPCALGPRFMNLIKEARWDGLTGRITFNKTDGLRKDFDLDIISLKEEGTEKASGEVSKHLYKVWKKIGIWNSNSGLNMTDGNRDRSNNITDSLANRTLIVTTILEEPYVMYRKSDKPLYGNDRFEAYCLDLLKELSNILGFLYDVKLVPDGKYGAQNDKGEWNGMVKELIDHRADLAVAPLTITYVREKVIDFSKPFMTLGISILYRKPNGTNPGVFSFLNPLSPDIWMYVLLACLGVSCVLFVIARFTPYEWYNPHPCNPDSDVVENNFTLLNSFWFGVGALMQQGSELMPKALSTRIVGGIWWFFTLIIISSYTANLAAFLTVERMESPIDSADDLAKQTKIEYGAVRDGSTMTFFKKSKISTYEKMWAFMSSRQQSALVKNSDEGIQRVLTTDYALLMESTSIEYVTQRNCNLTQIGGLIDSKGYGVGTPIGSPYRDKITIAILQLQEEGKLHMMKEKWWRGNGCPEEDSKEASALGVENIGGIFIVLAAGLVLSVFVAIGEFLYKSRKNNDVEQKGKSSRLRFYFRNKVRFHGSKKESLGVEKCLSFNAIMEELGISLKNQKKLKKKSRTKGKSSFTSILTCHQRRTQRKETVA
Procedure Summary: Displacement of [3H]NF608 from eGFP-fused recombinant rat full length GluK1 receptor expressed in HEK293T/17 cells by liquid scintillation counting method
Format: cell-based
Experimental Conditions: read-out: Ki
Item-by-item account of pKi
Scale: negative log10 of molar concentration, which is what pKi denotes.

Some compounds with recorded pKi:
## Input Given the compound "O=C(O)c1ccc(O[C@H]2CN[C@H](C(=O)O)C2)c(C(=O)O)c1" , what is its reported pKi?
## Output 4.00

## Input Given the compound "Cc1cccc(C(=O)O)c1O[C@H]1CN[C@H](C(=O)O)C1" , what is its reported pKi?
## Output 5.27

## Input Given the compound "O=C(O)Cc1ccccc1O[C@H]1CN[C@H](C(=O)O)C1" , what is its reported pKi?
## Output 4.62

## Input Given the compound "O=C(O)c1ccccc1S[C@H]1CN[C@H](C(=O)O)C1" , what is its reported pKi?
## Output 5.08

Continuing:
## Input Given the compound "Cc1ccc(O[C@H]2CN[C@H](C(=O)O)C2)c(C(=O)O)c1" , what is its reported pKi?
## Output 4.62

## Input Given the compound "O=C(O)c1cc2ccccc2cc1O[C@H]1CN[C@H](C(=O)O)C1" , what is its reported pKi?
## Output 5.46
